biological target: HRgpA-6H (Porphyromonas gingivalis) (UniProt P28784); assay: ELISA, coated HRgpA-6H

binder	OD450 nm
KB001 mouse Fab VL S28N (Fab, V domains shown) VH: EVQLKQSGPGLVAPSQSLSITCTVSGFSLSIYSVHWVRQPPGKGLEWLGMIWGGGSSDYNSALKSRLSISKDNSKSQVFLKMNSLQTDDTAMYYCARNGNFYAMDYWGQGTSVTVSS VL: QIVLTQSPAIMSASLGERVTMTCTASSNVSSSFLHWYQQKPGSSPQLWIYSTSNLASGVPARFSGSGSGTSYSLTISSMEAEDAATYYCHQYHHSPYIYTFGGGTKLEIK	0.743
KB001 mouse Fab VH S30T (Fab, V domains shown) VH: EVQLKQSGPGLVAPSQSLSITCTVSGFSLTIYSVHWVRQPPGKGLEWLGMIWGGGSSDYNSALKSRLSISKDNSKSQVFLKMNSLQTDDTAMYYCARNGNFYAMDYWGQGTSVTVSS VL: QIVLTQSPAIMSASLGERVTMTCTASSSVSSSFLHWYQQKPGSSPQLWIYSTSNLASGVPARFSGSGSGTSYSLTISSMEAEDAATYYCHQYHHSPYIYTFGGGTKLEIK	0.457
KB001 mouse Fab VL N54R (Fab, V domains shown) VH: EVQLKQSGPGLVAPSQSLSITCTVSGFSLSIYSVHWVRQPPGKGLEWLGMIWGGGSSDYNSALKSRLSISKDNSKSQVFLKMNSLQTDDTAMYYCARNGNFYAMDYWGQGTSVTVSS VL: QIVLTQSPAIMSASLGERVTMTCTASSSVSSSFLHWYQQKPGSSPQLWIYSTSRLASGVPARFSGSGSGTSYSLTISSMEAEDAATYYCHQYHHSPYIYTFGGGTKLEIK	0.876
